Target protein (sequence): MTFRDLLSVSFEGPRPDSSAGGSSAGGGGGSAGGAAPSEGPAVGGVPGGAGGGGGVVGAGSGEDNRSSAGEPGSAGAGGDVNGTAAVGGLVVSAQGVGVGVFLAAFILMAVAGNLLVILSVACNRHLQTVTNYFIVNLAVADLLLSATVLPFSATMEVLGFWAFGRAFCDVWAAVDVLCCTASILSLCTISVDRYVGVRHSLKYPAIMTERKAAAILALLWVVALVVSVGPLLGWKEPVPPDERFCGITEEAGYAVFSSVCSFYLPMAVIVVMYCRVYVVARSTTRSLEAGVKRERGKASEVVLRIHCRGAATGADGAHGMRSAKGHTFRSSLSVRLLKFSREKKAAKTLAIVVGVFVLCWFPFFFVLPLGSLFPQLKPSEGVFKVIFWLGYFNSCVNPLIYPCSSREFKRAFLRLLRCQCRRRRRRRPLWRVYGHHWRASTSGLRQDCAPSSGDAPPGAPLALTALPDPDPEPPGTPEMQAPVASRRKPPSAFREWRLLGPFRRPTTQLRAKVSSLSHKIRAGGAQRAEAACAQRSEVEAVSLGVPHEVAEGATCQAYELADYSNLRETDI
reported_property: pKi
Please note pKi is a logarithmic value: minus log10 of concentration in mol/L. Answer with that number alone.

Bench note: what pKi did CC(C)Oc1ccccc1N1CCN(CC(O)CNC(=O)c2ccc3c(c2)C(=O)N(c2ccc(N(C)C)cc2)C3=O)CC1 (stereo not drawn) show? 7.40

Next record, please: Cc1ccc(N2C(=O)c3ccc(C(=O)NC[C@H](O)CN4CCN(c5ccccc5OC(C)C)CC4)cc3C2=O)cc1 7.27

Next record, please: CCOc1ccccc1N1CCN(CC(O)CNC(=O)c2ccc3c(c2)C(=O)N(c2cccc(F)c2)C3=O)CC1 (stereo not drawn) 6.86

Next record, please: CC(C)Oc1ccccc1N1CCN(C[C@@H](O)CNC(=O)c2ccc3c(c2)C(=O)N(c2ccc(O)cc2)C3=O)CC1 6.86

Next record, please: CC(C)Oc1ccccc1N1CCN(CC(O)CNC(=O)c2ccc3c(c2)C(=O)N(c2ccc(F)cc2)C3=O)CC1 (stereo not drawn) 6.95

Next record, please: Cc1ccc(N2C(=O)c3ccc(C(=O)NCCCN4CCN(c5ccccc5OC(C)C)CC4)cc3C2=O)cc1 7.43

Next record, please: COc1ccc(N2C(=O)c3ccc(C(=O)NC[C@H](O)CN4CCN(c5ccccc5OC(C)C)CC4)cc3C2=O)cc1 6.91

Next record, please: COc1ccc(N2C(=O)c3ccc(C(=O)NCC(O)CN4CCN(c5ccccc5OC(C)C)CC4)cc3C2=O)cc1OC (stereo not drawn) 7.25
